Each recorded value in this set is attributed to PubChem BioAssay AID1986.

experiment: inhibitors of HIV fusion peptide binding, primary screen, biochemical, uHTS, fluorescence dequenching (AID 1986)
cond: cell-free peptide binding, 30 min, measured here: repeat confirmation average inhibition, at 18.6 µM, stronger effect = higher value
About 890 (0.31%) of roughly 290,000 compounds were called active. The sample holds actives, similar compounds and a random draw of the others, so the mix is not that of the screen.
Exercise: state measured inhibition for each of the compounds provided.
// units = %; emit number, no label

Query: Can you share its inhibition? I mean this compound: CCN(CC)c1ccc(/C=N/c2sc3c(c2C#N)C2CCN3CC2)c(O)c1
Response: 193

Query: Can you share its inhibition? I mean this compound: O=C1NC(=O)N(Cc2ccco2)C(=O)/C1=C\c1cccn1CCOc1ccc(Cl)cc1
Response: 0.8

Query: Can you share its inhibition? I mean this compound: Cc1cc2c(C(F)(F)F)cc(=O)oc2c2c1NCCC2
Response: 56.2

Query: Can you share its inhibition? I mean this compound: Cc1ccc(-n2c(O)c(/C=N/c3ncc(Br)cc3Br)c(=O)[nH]c2=O)cc1
Response: 2.3

Query: Can you share its inhibition? I mean this compound: Cc1ccc(N2C(=O)NC(=O)/C(=C\C=C\c3ccco3)C2=O)cc1
Response: 16.3

Query: Can you share its inhibition? I mean this compound: CC/C(=N\NC(=O)c1ccccc1O)c1c(O)n(C2CCCCC2)c(=O)[nH]c1=O
Response: 46.2

Query: Can you share its inhibition? I mean this compound: O=c1[nH]c(=O)n(Cc2ccccc2)c(O)c1/C=C1\C=Nc2ccccc21
Response: 66.2

Query: Can you share its inhibition? I mean this compound: CC(=O)c1ccc2c(c1)C1C(Cl)C(Sc3ccccc3[N+](=O)[O-])CC1C(C(=O)O)N2 (stereo unspecified)
Response: 1.3

Query: Can you share its inhibition? I mean this compound: Cc1cc(/C=C2/C(=O)NC(=O)N(Cc3ccco3)C2=O)c(C)n1-c1ccccc1
Response: 2.6

Query: Can you share its inhibition? I mean this compound: Cc1cc(C)cc(N2C(=O)NC(=O)/C(=C\C=C\c3ccco3)C2=O)c1
Response: 13.9

Query: Can you share its inhibition? I mean this compound: Cn1cc(C=C(C#N)C#N)c2ccccc21
Response: 90.2

Query: Can you share its inhibition? I mean this compound: Cc1ccccc1N1C(=O)NC(=O)/C(=C/c2ccc(N3CCOCC3)o2)C1=O
Response: 80.2

Query: Can you share its inhibition? I mean this compound: CN1C(=O)C(=Cc2sc(=O)n(-c3ccccc3)c2N2CCCCC2)C(=O)N(C)C1=O
Response: 87.3

Query: Can you share its inhibition? I mean this compound: Cn1c(O)c(/C=C/C=Nc2ccccc2)c(=O)n(C)c1=O
Response: 27.8

Query: Can you share its inhibition? I mean this compound: O=C1NC(=O)N(Cc2ccccc2)C(=O)/C1=C\c1ccco1
Response: 4.5

Query: Can you share its inhibition? I mean this compound: CCc1ccc(N2C(=O)NC(=O)/C(=C\c3cccn3CCOc3ccc(C(C)C)cc3)C2=O)cc1
Response: 1.8
